Kindly state MOR agonist activity ([35S]GTPgS binding to Gao) for each of the entries shown.
Target: mu opiate receptor (MOR) (Rattus norvegicus, UniProt P33535)
Construct: from tissue; host or cells: striatum (membrane preparation)
Sequence (P33535 whole entry): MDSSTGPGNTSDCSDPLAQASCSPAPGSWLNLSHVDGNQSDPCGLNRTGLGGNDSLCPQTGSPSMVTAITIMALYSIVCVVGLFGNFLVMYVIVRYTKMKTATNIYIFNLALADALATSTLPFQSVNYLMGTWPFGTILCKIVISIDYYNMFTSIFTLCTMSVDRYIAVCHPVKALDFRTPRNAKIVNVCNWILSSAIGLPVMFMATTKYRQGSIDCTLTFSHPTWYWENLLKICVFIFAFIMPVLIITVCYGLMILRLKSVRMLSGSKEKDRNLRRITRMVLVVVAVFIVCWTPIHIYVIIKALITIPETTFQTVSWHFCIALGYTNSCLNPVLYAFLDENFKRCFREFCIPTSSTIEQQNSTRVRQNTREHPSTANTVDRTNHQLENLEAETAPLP
Test: MOR agonist activity using [35S]GTPgS binding assay in striatal membranes
Type: biochemical
Conditions: 1 μM + BFNA; Series C-2 table
One number for each entry, in %.

Previously resolved entries follow.
MOR agonist activity ([35S]GTPgS binding to Gao) reading for CC(=O)c1ccc(S(=O)(=O)N2CCOC23CCN(C)CC3)cc1 [Compound C0093M] : 44.0

The compound listed as C=CCN1CCC2(CC1)OCCN2S(=O)(=O)c1ccc(C(C)=O)cc1 [Compound C0096M] has a reported MOR agonist activity ([35S]GTPgS binding to Gao) of 127.1

Please turn your attention to the following entry.
# compound CC(=O)c1ccc(S(=O)(=O)N2CC(CN(C)C)OC23CCNCC3)cc1 (stereo not drawn) [Compound C0118M] ; its MOR agonist activity ([35S]GTPgS binding to Gao) = 79.2

###

Target: mu opiate receptor (MOR) (Rattus norvegicus, UniProt P33535)
Construct: from tissue; host or cells: striatum (membrane preparation)
Assay: MOR agonist activity using [35S]GTPgS binding assay in striatal membranes
Assay type: biochemical
Conditions: 1 μM compound as agonist; Series C-1 table
Provide the recorded MOR agonist activity ([35S]GTPgS binding to Gao) for the entries that follow.
One number for each entry, in %.

Briefly, MOR agonist activity ([35S]GTPgS binding to Gao) measured for N#Cc1ccccc1S(=O)(=O)N1CCC2(CC1)OCCN2S(=O)(=O)c1ccccc1C#N : 228.4

Looking up CC(=O)c1ccc(C(=O)N2CCC3(CC2)OCCN3C(=O)c2ccc(C(C)=O)cc2)cc1 , I see its MOR agonist activity ([35S]GTPgS binding to Gao) listed as 127.0

GET /value?item= COc1ccc(S(=O)(=O)N2CCOC23CCN(S(=O)(=O)c2ccc(C(C)=O)cc2)CC3)cc1 &field=MOR agonist activity ([35S]GTPgS binding to Gao) returns 206.1

Look up MOR agonist activity ([35S]GTPgS binding to Gao) for the entries below, preserving their order.
1. Cc1cccc(S(=O)(=O)N2CCC3(CC2)OCCN3S(=O)(=O)c2cccc(C)c2)c1
2. O=S(=O)(c1cccc(OC(F)(F)F)c1)N1CCC2(CC1)OCCN2S(=O)(=O)c1cccc(OC(F)(F)F)c1
3. O=S(=O)(c1ccc(Cl)cc1)N1CCC2(CC1)OCCN2S(=O)(=O)c1ccc(Cl)cc1

1: 153.5; 2: 227.2; 3: 179.0

Form field MOR agonist activity ([35S]GTPgS binding to Gao), entry COc1ccc(S(=O)(=O)N2CCC3(CC2)OCCN3S(=O)(=O)c2ccc(OC)c(OC)c2)cc1OC : 210.0

###

Target: mu opiate receptor (MOR) (Rattus norvegicus, UniProt P33535)
Construct: from tissue; host or cells: striatum (membrane preparation)
Assay: MOR agonist activity using [35S]GTPgS binding assay in striatal membranes
Format: biochemical
Details: 1 μM + BFNA; Series C-1 table
Exercise: for every item that follows, state its recorded MOR agonist activity ([35S]GTPgS binding to Gao).
Write your answer as a measured quantity: the number, then the unit.

Field: example entries. Status: answers known.
So, O=S(=O)(c1cccc2cccnc12)N1CCC2(CC1)OCCN2S(=O)(=O)c1cccc2cccnc12 [Compound C0143M] ? Its MOR agonist activity ([35S]GTPgS binding to Gao) was 86.5%

Lab note: Cc1ccccc1S(=O)(=O)N1CCC2(CC1)OCCN2S(=O)(=O)c1ccccc1C gave MOR agonist activity ([35S]GTPgS binding to Gao) of 126.8%

The recorded MOR agonist activity ([35S]GTPgS binding to Gao) for entry O=S(=O)(c1ccccc1)N1CCC2(CC1)OCCN2S(=O)(=O)c1ccccc1 equals 96.7%

Value of MOR agonist activity ([35S]GTPgS binding to Gao) reported for the compound O=S(=O)(c1ccc(F)c(F)c1)N1CCC2(CC1)OCCN2S(=O)(=O)c1ccc(F)c(F)c1 is 67.1%

Given item COc1ccc(NC(=O)N2CCC3(CC2)OCCN3S(=O)(=O)c2ccc(OC)cc2)cc1 , the value recorded as its MOR agonist activity ([35S]GTPgS binding to Gao) is 95.5%

Per the record, COc1cccc(S(=O)(=O)N2CCC3(CC2)OCCN3S(=O)(=O)c2cccc(OC)c2)c1 has MOR agonist activity ([35S]GTPgS binding to Gao) of 3.9%

For CC(=O)c1ccc(S(=O)(=O)N2CCC3(CC2)NC(=O)CN3Cc2ccccc2)cc1 [Compound C0085M] the compound record lists MOR agonist activity ([35S]GTPgS binding to Gao) as 43.7%

The compound COc1ccc(S(=O)(=O)N2CCOC23CCN(S(=O)(=O)c2ccc(C(C)=O)cc2)CC3)cc1 showed MOR agonist activity ([35S]GTPgS binding to Gao) equal to 80.1%

Sample CCCCc1ccc(S(=O)(=O)N2CCC3(CC2)OCCN3S(=O)(=O)c2ccc(CCCC)cc2)cc1 ; MOR agonist activity ([35S]GTPgS binding to Gao) observed: 95.0%

The compound listed as O=C(O)c1ccc(C(=O)N2CCC3(CC2)OCCN3S(=O)(=O)c2ccc(C(=O)O)cc2)cc1 has a reported MOR agonist activity ([35S]GTPgS binding to Gao) of 90.7%

Look at each compound and report its MOR agonist activity ([35S]GTPgS binding to Gao).
1. COc1ccc(S(=O)(=O)N2CCC3(CC2)OCCN3S(=O)(=O)c2ccc(OC)c(OC)c2)cc1OC
2. O=S(=O)(c1ccc2ccccc2c1)N1CCC2(CC1)OCCN2S(=O)(=O)c1ccc2ccccc2c1 [Compound C0140M]

["81.0%", "83.0%"]

Hi! Can you tell me MOR agonist activity ([35S]GTPgS binding to Gao) for each of these compounds?
1. CC(=O)c1ccc(S(=O)(=O)N2CCC3(CC2)OC(CN(C)C)CN3S(=O)(=O)c2ccc(C(C)=O)cc2)cc1 (stereo not drawn)
2. CC(=O)c1ccc(C(=O)N2CCOC23CCN(S(=O)(=O)c2ccc(C(C)=O)cc2)CC3)cc1
3. COc1ccc(S(=O)(=O)N2CCC3(OCCN3S(=O)(=O)c3ccc(OC)cc3)C3CCCCC32)cc1 (stereo not drawn) [Compound C0144M]

47.7%
93.1%
125.9%
